Values of MIC reported for A. baumannii ATCC 17978 appear below.
assay_endpoint: MIC (µM)

>  <compound>
N=C(N)c1cccc(CCCCCCCc2cccc(C(=N)N)c2)c1 [Compound 1, 3,3′-(heptane-1,7-diyl)dibenzimidamide]

>  <target_of_assay>
A. baumannii ATCC 17978

>  <assay_endpoint>
MIC

>  <readout_relation>
=

>  <test_value>
149

$$$$
>  <compound>
Nc1nccc2ccc(CCCCCCCc3ccc4ccnc(N)c4c3)cc12

>  <target_of_assay>
A. baumannii ATCC 17978

>  <assay_endpoint>
MIC

>  <readout_relation>
=

>  <test_value>
8.13

$$$$
>  <compound>
CO[C@@H]1[C@@H](OC(N)=O)[C@@H](O)[C@H](Oc2ccc3c(O)c(NC(=O)c4ccc(O)c(CC=C(C)C)c4)c(=O)oc3c2C)OC1(C)C [novobiocin, reference compound]

>  <target_of_assay>
A. baumannii ATCC 17978

>  <assay_endpoint>
MIC

>  <readout_relation>
>

>  <test_value>
18.9

$$$$

====

Below is a list of entries, each paired with its recorded MIC value.
# Tested on: A. baumannii ATCC 17978
# experiment: Checkerboard assay with novobiocin (FIGS. 2, 3, 5, 6)
# Type: cell-based, Acinetobacter baumannii
# experimental_conditions: Acinetobacter baumannii, ATCC17978, substance alone

>  <compound>
N=C(N)c1ccc(CC[C@H]2CCC[C@@H](CCc3ccc(C(=N)N)cc3)C2)cc1

>  <readout_relation>
=

>  <MIC (µM)>
33.2

$$$$
>  <compound>
N=C(N)c1cccc(CCCCCCCc2cccc(C3CCNC3)c2)c1 (stereo not drawn)

>  <readout_relation>
=

>  <MIC (µM)>
138

$$$$
>  <compound>
N=C(N)c1ccc(CCCCCCCc2ccc(C3CCNC3)cc2)cc1 (stereo not drawn)

>  <readout_relation>
>

>  <MIC (µM)>
34.4

$$$$

Cited source for all entries: patent US20230391727A1
